tested on: Influenza A virus; assay type: functional, organism-based; conditions: A/WSN/1933(H1N1), MDCK, 72 h
pEC50: −log10 of the molar value.
Reported pEC50 values follow for various compounds
MEASUREMENT TYPE: pEC50

1. COCCN1CN(C(c2ccccc2)c2ccccc2)n2cc(C(=O)O)c(=O)c(O)c2C1=O ... 5.83
2. COCCN1C[C@H](C(c2ccccc2)c2ccccc2)n2ccc(=O)c(O)c2C1=O ... 6.87
3. O=C1c2c(O)c(=O)ccn2N(C(c2ccccc2)c2ccccc2)CN1Cc1ccco1 ... 6.32
